- target-or-test-system: T1, N289A
- T1 construct: % monomer 89.74; also called MICA*008.mIgG2a N289A
- T1 chain: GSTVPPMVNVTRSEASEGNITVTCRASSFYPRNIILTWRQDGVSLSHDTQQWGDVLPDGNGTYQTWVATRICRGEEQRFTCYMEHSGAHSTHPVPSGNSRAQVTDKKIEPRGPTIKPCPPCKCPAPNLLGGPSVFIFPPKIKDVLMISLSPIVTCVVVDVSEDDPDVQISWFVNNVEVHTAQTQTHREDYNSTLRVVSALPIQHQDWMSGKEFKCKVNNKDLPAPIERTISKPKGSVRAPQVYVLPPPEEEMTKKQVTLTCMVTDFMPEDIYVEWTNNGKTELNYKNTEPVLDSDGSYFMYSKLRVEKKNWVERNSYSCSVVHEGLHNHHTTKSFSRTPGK
- assay-comment: SPR, Fab over captured MICA*008.mIgG2a Ala variant; KD relative to wild type
measured-metric: fold-decrease in affinity
Write the number on its own, no unit after it.

Return reported fold-decrease in affinity; argument: 2E5.2.3 Fab (Fab, V domains shown) VH: QGQMQQSGAELVKPGASVKLSCKTSGFTFSDNYISWLKQKPGQSLEWIAWIYAGTGGTSYNQKFTAKAQLTVDTSSSTAYMQFSSLTTEDSAIYYCARHDYYGTSGAWFAYWGQGTLVTVSA VL: DVLMTQTPLSLPVSLGDQASLSCRSSQNIVHINGNTYLEWYLQKPGQSPKLLIYKVSNRFSGVPDRFSGSGSGTDFTLKISRVEAEDLGVYYCFQGSHVPWTFGGGTKVEIK
1.1

Please give the result for 1D5 Fab (Fab, V domains shown, Expressed in E. coli as chimera of murine variable and human constant domains; not shown: human IgG1 CH1 constant domain; human kappa CL constant domain) VH: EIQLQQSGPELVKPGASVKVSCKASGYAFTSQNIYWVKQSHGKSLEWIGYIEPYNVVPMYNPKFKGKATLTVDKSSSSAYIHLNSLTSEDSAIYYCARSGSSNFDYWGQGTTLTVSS VL: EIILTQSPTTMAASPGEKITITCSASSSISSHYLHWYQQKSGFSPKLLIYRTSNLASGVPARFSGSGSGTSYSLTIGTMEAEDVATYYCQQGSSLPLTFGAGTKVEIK too.
0.2

Please give the result for 6F8.7 Fab (Fab, V domains shown) VH: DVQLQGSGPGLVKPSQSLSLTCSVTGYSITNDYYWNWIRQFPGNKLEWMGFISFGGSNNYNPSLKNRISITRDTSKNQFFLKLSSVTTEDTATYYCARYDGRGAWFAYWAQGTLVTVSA VL: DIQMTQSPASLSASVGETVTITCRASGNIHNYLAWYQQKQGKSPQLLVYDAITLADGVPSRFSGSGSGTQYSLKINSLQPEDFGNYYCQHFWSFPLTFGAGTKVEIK too.
1.2

Please give the result for 7D4.6 Fab (Fab, V domains shown) VH: DVQLQESGPGLVKPSQSLSLTCTVTGYSITSDYAWNWIRQFPRNKLEWMGYINYSGTTNYNPSLKSRISITRDTSKNQFFLQLISVTTEDTATYYCSYYRYDGAWFPYWGQGTLVTVSA VL: DIQMTQSPASLSASVGETVTITCRASGNIHNYLAWYQQKQGKSPQLLVYNAIMLADGVPSRFSASGSGTQYSLKINSLQPEDFGSYYCQHFWSFPLTFGAGTKVEIK too.
3.5
